# assayNotes: Cell-based assay, TGFb1 (Cell IC50)
Hi! Could you tag entries with IC50 below 6 µM as rule met, and those at or above as rule not met? Much appreciated.

Record excerpt, results attached:
[
  {
    "molecule": "C[C@@H]1CNC[C@H](C)N1c1ccc(-c2cnc3c(-c4ccc(C(N)=O)c5ccccc45)cnn3c2)cc1 [Compound 9]",
    "answerLabel": "rule met"
  },
  {
    "molecule": "CN1CCC(c2ccc(-c3cnc4c(-c5ccc(S(N)(=O)=O)c6ccccc56)cnn4c3)cc2)CC1 [Compound 80]",
    "answerLabel": "rule not met"
  },
  {
    "molecule": "CN1CCC(c2ccc(-c3cnc4c(-c5cccc(S(C)(=O)=O)c5)cnn4c3)cc2)CC1 [Compound 91]",
    "answerLabel": "rule not met"
  }
]

Kindly review the next molecule as well.
*Q* Dear colleague, could you confirm whether IC50 of CN(C)C(=O)c1cccc2c(-c3cnn4cc(-c5ccc(N6CCNCC6)cc5)cnc34)cccc12 [Compound 8] falls below 6 µM? Thanks.
*A* rule met
